Test system: 616215-338-R-J1-PDC spheroids with HUVEC/MSC, viability
Assay: Anticancer human tumor 616215-338-R-J1-PDC patient-derived colon adenocarcinoma cell line growth inhibition [PI3K]
Conditions: second compound 0.01 µM; first compound 0.0316 µM; hits give low values
MEASURED_ATTRIBUTE: viability, T/C (%)

* C[C@@H](NC(=O)c1ncnc(N)c1Cl)c1ncc(C(=O)Nc2cc(C(F)(F)F)c(Cl)cn2)s1 + COc1c(OCCCN2CCOCC2)ccc2c3n(c(=NC(=O)c4cnc(N)nc4)nc12)CCN3 | 96.3
* Cn1ncnc1[C@H]1c2n[nH]c(=O)c3cc(F)cc(c23)N[C@@H]1c1ccc(F)cc1 + CC(Nc1ccc2c(c1)OCCn1cc(N3C(=O)OCC3C(F)F)nc1-2)C(N)=O | 101
* Cn1ncnc1[C@H]1c2n[nH]c(=O)c3cc(F)cc(c23)N[C@@H]1c1ccc(F)cc1 + COc1c(OCCCN2CCOCC2)ccc2c3n(c(=NC(=O)c4cnc(N)nc4)nc12)CCN3 | 96.9
* CC1(C)CCC(Nc2ncc(C(F)(F)F)c(-c3c[nH]c4c(P(C)(C)=O)c(C#N)ccc34)n2)CN1 (centres undefined) + CC(Nc1ccc2c(c1)OCCn1cc(N3C(=O)OCC3C(F)F)nc1-2)C(N)=O | 53.6
* CC1(C)CCC(CN2CCN(c3ccc(C(=O)NS(=O)(=O)c4ccc(NCC5CCOCC5)c([N+](=O)[O-])c4)c(Oc4cnc5[nH]ccc5c4)c3)CC2)=C(c2ccc(Cl)cc2)C1 + CC(Nc1ccc2c(c1)OCCn1cc(N3C(=O)OCC3C(F)F)nc1-2)C(N)=O | 92.9
* CNC(=O)c1ccc(N2C(=S)N(c3ccc(C#N)c(C(F)(F)F)c3)C(=O)C2(C)C)cc1F + CC(Nc1ccc2c(c1)OCCn1cc(N3C(=O)OCC3C(F)F)nc1-2)C(N)=O | 94.7
* C=CC(=O)N1CCN(c2nc(=O)n(-c3c(C)ccnc3C(C)C)c3nc(-c4c(O)cccc4F)c(F)cc23)C(C)C1 (centres undefined) + CC(Nc1ccc2c(c1)OCCn1cc(N3C(=O)OCC3C(F)F)nc1-2)C(N)=O | 91.8
* CCN1CCN(Cc2ccc(Nc3ncc(F)c(-c4cc(F)c5nc(C)n(C(C)C)c5c4)n3)nc2)CC1 + COc1c(OCCCN2CCOCC2)ccc2c3n(c(=NC(=O)c4cnc(N)nc4)nc12)CCN3 | 104
* CCN1CCN(Cc2ccc(Nc3ncc(F)c(-c4cc(F)c5nc(C)n(C(C)C)c5c4)n3)nc2)CC1 + CC(Nc1ccc2c(c1)OCCn1cc(N3C(=O)OCC3C(F)F)nc1-2)C(N)=O | 98.5

----------
viability, T/C values by entry
Tested on: 616215-338-R-J1-PDC spheroids with HUVEC/MSC, viability
Test: Anticancer human tumor 616215-338-R-J1-PDC cell line growth inhibition [PI3K];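 note: spheroids exposed to agents for seven days before the viability read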
Details: second compound 3.16 µM; first compound 0.0316 µM; hits give low values
MEASURED_ATTRIBUTE: viability, T/C (%)

* C[C@@H](NC(=O)c1ncnc(N)c1Cl)c1ncc(C(=O)Nc2cc(C(F)(F)F)c(Cl)cn2)s1 + Cc1nc(NC(=O)N2CCCC2C(N)=O)sc1-c1ccnc(C(C)(C)C(F)(F)F)c1 | 102
* CC(Cn1ccc(-c2ccc(C#N)c(Cl)c2)n1)NC(=O)c1cc(C(C)O)[nH]n1 (stereo not drawn) + CC(Nc1ncnc2nc[nH]c12)c1cc2cccc(Cl)c2c(=O)n1-c1ccccc1 | 109
* C[C@@H](NC(=O)c1ncnc(N)c1Cl)c1ncc(C(=O)Nc2cc(C(F)(F)F)c(Cl)cn2)s1 + CC(Nc1ncnc2nc[nH]c12)c1cc2cccc(Cl)c2c(=O)n1-c1ccccc1 | 95.9
